Tested on: Enterococcus
Test: Antibacterial activity against vancomycin-resistant Enterococcus 2 after 18 to 20 hrs by agar dilution method
Format: functional
Label 1.0 when MIC < 6 µg/mL; otherwise 0.0.

is_below(MIC, 6 µg/mL) for `CC(=O)NC[C@H]1CN(c2ccc(N3CCCNS3(=O)=O)c(F)c2)C(=O)O1` ?
1.0

is_below(MIC, 6 µg/mL) for `CCN1CCN(c2ccc(N3C[C@H](CNC(C)=O)OC3=O)cc2F)S1(=O)=O` ?
0.0

is_below(MIC, 6 µg/mL) for CC(=O)NC[C@H]1CN(c2ccc(N3CCOCC3)c(F)c2)C(=O)O1 [LINEZOLID] ?
1.0

is_below(MIC, 6 µg/mL) for CC(=O)NC[C@H]1CN(c2ccc(N3CC(C)NS3(=O)=O)c(F)c2)C(=O)O1 (stereo partly specified) ?
0.0

is_below(MIC, 6 µg/mL) for `CC(=O)NC[C@H]1CN(c2ccc(N3CCN(Cc4ccccc4)S3(=O)=O)c(F)c2)C(=O)O1` ?
0.0

Please examine the following record next.
is_below(MIC, 6 µg/mL) for `CC(=O)NC[C@H]1CN(c2ccc(N3CCNS3(=O)=O)c(F)c2)C(=O)O1` ?
1.0

----------
Tested on: Enterococcus faecium
Assay: Antibacterial activity against vancomycin-resistant Enterococcus faecium 1 after 18 to 20 hrs by agar dilution method
Format: functional
Measurement Name: log10 of MIC (log10 of the value in µg/mL)
Reminder: these figures are log10 of reported MIC, in µg/mL before transformation.

Answered cases to consult:
Please give measured log10 of MIC of the following entry: `CC(=O)NC[C@H]1CN(c2ccc(N3CCCN(C)S3(=O)=O)c(F)c2)C(=O)O1`
-0.11

Please give measured log10 of MIC of the following entry: `CC(=O)NC[C@H]1CN(c2ccc(N3CCN(C(=O)OC(C)(C)C)S3(=O)=O)c(F)c2)C(=O)O1`
1.10

Please give measured log10 of MIC of the following entry: `CC(=O)NC[C@H]1CN(c2ccc(N3CCCNS3(=O)=O)c(F)c2)C(=O)O1`
0.49

Please give measured log10 of MIC of the following entry: `CCN1CCN(c2ccc(N3C[C@H](CNC(C)=O)OC3=O)cc2F)S1(=O)=O`
0.80

Please give measured log10 of MIC of the following entry: CC(=O)NC[C@H]1CN(c2ccc(N3CCOCC3)c(F)c2)C(=O)O1 [LINEZOLID]
0.19

Okay, here is my list. What is log10 of MIC for each of these?
1. CC(=O)NC[C@H]1CN(c2ccc(N3CCNS3(=O)=O)c(F)c2)C(=O)O1
2. CC(=O)NC[C@H]1CN(c2ccc(N3CCN(Cc4ccccc4)S3(=O)=O)c(F)c2)C(=O)O1

1. -0.70
2. 0.80

Okay, here is my list. What is log10 of MIC for each of these?
1. CC(=O)NC[C@H]1CN(c2ccc(N3CC(C)(C)NS3(=O)=O)c(F)c2)C(=O)O1
2. CC(=O)NC[C@H]1CN(c2ccc(N3CCOS3(=O)=O)c(F)c2)C(=O)O1
3. CC(=O)NC[C@H]1CN(c2ccc(N3CC(C)NS3(=O)=O)c(F)c2)C(=O)O1 (stereo partly specified)
4. CC(=O)NC[C@H]1CN(c2ccc(N3CCN(C)S3(=O)=O)c(F)c2)C(=O)O1

1.10
0.19
0.80
0.49

----------
Could you please report measured MIC for the items listed next?
System: Staphylococcus aureus
Assay: Antibacterial activity against methicillin-resistant Staphylococcus aureus 1 after 18 to 20 hrs by agar dilution method
Assay type: functional
Give bare numbers, in µg/mL.

Answered cases to consult:
Please give measured MIC of the following entry: `CC(=O)NC[C@H]1CN(c2ccc(N3CCOCC3)c(F)c2)C(=O)O1`
3.12

Please give measured MIC of the following entry: `CC(=O)NC[C@H]1CN(c2ccc(N3CCCNS3(=O)=O)c(F)c2)C(=O)O1`
1.56

Please give measured MIC of the following entry: `CC(=O)NC[C@H]1CN(c2ccc(N3CCOS3(=O)=O)c(F)c2)C(=O)O1`
3.12

Okay, here is my list. What is MIC for each of these?
1. CC(=O)NC[C@H]1CN(c2ccc(N3CC(C)(C)NS3(=O)=O)c(F)c2)C(=O)O1
2. CC(=O)NC[C@H]1CN(c2ccc(N3CCN(Cc4ccccc4)S3(=O)=O)c(F)c2)C(=O)O1
3. CC(=O)NC[C@H]1CN(c2ccc(N3CCN(C(=O)OC(C)(C)C)S3(=O)=O)c(F)c2)C(=O)O1

12.5
6.25
12.5

----------
Test system: Enterococcus faecium
Assay: Antibacterial activity against Enterococcus faecium C803 after 18 to 20 hrs by agar dilution method
Assay type: functional
Could you please report measured log10 MIC for the items listed next?
Reminder: these figures are log10 of reported MIC, in µg/mL before transformation.

Answered cases to consult:
Please give measured log10 MIC of the following entry: `CC(=O)NC[C@H]1CN(c2ccc(N3CCCN(C)S3(=O)=O)c(F)c2)C(=O)O1`
0.19

Please give measured log10 MIC of the following entry: `CC(=O)NC[C@H]1CN(c2ccc(N3CCN(Cc4ccccc4)S3(=O)=O)c(F)c2)C(=O)O1`
0.80

Please give measured log10 MIC of the following entry: `CC(=O)NC[C@H]1CN(c2ccc(N3CC(C)(C)NS3(=O)=O)c(F)c2)C(=O)O1`
1.40

Okay, here is my list. What is log10 MIC for each of these?
1. CC(=O)NC[C@H]1CN(c2ccc(N3CCOCC3)c(F)c2)C(=O)O1
2. CC(=O)NC[C@H]1CN(c2ccc(N3CCNS3(=O)=O)c(F)c2)C(=O)O1
3. CC(=O)NC[C@H]1CN(c2ccc(N3CCCNS3(=O)=O)c(F)c2)C(=O)O1
4. CC(=O)NC[C@H]1CN(c2ccc(N3CCN(C)S3(=O)=O)c(F)c2)C(=O)O1
5. CC(=O)NC[C@H]1CN(c2ccc(N3CCOS3(=O)=O)c(F)c2)C(=O)O1
6. CCN1CCN(c2ccc(N3C[C@H](CNC(C)=O)OC3=O)cc2F)S1(=O)=O
7. CC(=O)NC[C@H]1CN(c2ccc(N3CC(C)NS3(=O)=O)c(F)c2)C(=O)O1 (stereo partly specified)
8. CC(=O)NC[C@H]1CN(c2ccc(N3CCN(C(=O)OC(C)(C)C)S3(=O)=O)c(F)c2)C(=O)O1

[0.19, -0.41, 0.19, 0.49, 0.19, 0.19, 0.49, 1.40]

----------
Tested on: Staphylococcus aureus
Experiment: Antibacterial activity against methicillin-resistant Staphylococcus aureus 1 after 18 to 20 hrs by agar dilution method
Type: functional
Label Criterion met when MIC < 6 µg/mL; otherwise Criterion not met.

is_below(MIC, 6 µg/mL) for `CC(=O)NC[C@H]1CN(c2ccc(N3CCN(C)S3(=O)=O)c(F)c2)C(=O)O1` ?
Criterion met

is_below(MIC, 6 µg/mL) for CC(=O)NC[C@H]1CN(c2ccc(N3CC(C)NS3(=O)=O)c(F)c2)C(=O)O1 (stereo not given in full) ?
Criterion not met

is_below(MIC, 6 µg/mL) for `CC(=O)NC[C@H]1CN(c2ccc(N3CCNS3(=O)=O)c(F)c2)C(=O)O1` ?
Criterion met

is_below(MIC, 6 µg/mL) for `CCN1CCN(c2ccc(N3C[C@H](CNC(C)=O)OC3=O)cc2F)S1(=O)=O` ?
Criterion not met

Please examine the following record next.
is_below(MIC, 6 µg/mL) for `CC(=O)NC[C@H]1CN(c2ccc(N3CCCN(C)S3(=O)=O)c(F)c2)C(=O)O1` ?
Criterion met

----------
System: Streptococcus pneumoniae
Experiment: Antibacterial activity against Streptococcus pneumoniae C402 after 18 to 20 hrs by agar dilution method
Format: functional
Label yes when MIC < 2 µg/mL; otherwise no.

Here's what some known entries look like.
is_below(MIC, 2 µg/mL) for `CC(=O)NC[C@H]1CN(c2ccc(N3CCOCC3)c(F)c2)C(=O)O1` ?
yes

is_below(MIC, 2 µg/mL) for `CC(=O)NC[C@H]1CN(c2ccc(N3CCOS3(=O)=O)c(F)c2)C(=O)O1` ?
yes

is_below(MIC, 2 µg/mL) for `CC(=O)NC[C@H]1CN(c2ccc(N3CCN(Cc4ccccc4)S3(=O)=O)c(F)c2)C(=O)O1` ?
no

***
is_below(MIC, 2 µg/mL) for `CC(=O)NC[C@H]1CN(c2ccc(N3CC(C)(C)NS3(=O)=O)c(F)c2)C(=O)O1` ?
no

is_below(MIC, 2 µg/mL) for `CC(=O)NC[C@H]1CN(c2ccc(N3CCN(C(=O)OC(C)(C)C)S3(=O)=O)c(F)c2)C(=O)O1` ?
no

is_below(MIC, 2 µg/mL) for `CC(=O)NC[C@H]1CN(c2ccc(N3CCNS3(=O)=O)c(F)c2)C(=O)O1` ?
yes

is_below(MIC, 2 µg/mL) for `CC(=O)NC[C@H]1CN(c2ccc(N3CCCNS3(=O)=O)c(F)c2)C(=O)O1` ?
yes

is_below(MIC, 2 µg/mL) for CC(=O)NC[C@H]1CN(c2ccc(N3CC(C)NS3(=O)=O)c(F)c2)C(=O)O1 (stereo partly specified) ?
no
